- Tested on: P. falciparum stage V gametocytes
- assay.comment: Gametocytocidal ATP bioluminescence assay (single point 5 μM and 1 μM, dose-response)
- Assay type: cell-based, Plasmodium falciparum
- recorded.conditions: Plasmodium falciparum; gametocytes, primary screen at 5 μM (S9 Table, CSA analogs)
So basically: inhibition at 5 µM at 60% or higher? That is YES. Lower than 60%? That is NO.

Task: Given the entry CNCCNCc1ccc(-c2ccc(-c3nc4ccccc4[nH]3)s2)cc1 [TCMDC-132824] , answer whether its inhibition at 5 µM meets or surpasses 60%.
Result: YES

Task: Also c1ccc2[nH]c(-c3ccc(-c4ccc(CNC5CC5)cc4)s3)nc2c1 [TCMDC-132675] ?
Result: NO

Task: Also CN(C)CCNCc1ccc(-c2ccc(-c3nc4ccccc4[nH]3)s2)cc1 [TCMDC-132683] ?
Result: NO

Task: Also Fc1ccc2[nH]c(-c3ccc(-c4ccc(CNCCN5CCNCC5)cc4)s3)nc2c1 [TCMDC-132869] ?
Result: YES

Task: Also CC(C)CN(C)Cc1ccc(-c2ccc(-c3nc4ccccc4[nH]3)s2)cc1 [TCMDC-136786] ?
Result: NO

Value source: paper PMC4552634
